Tested on: SNB-75
Test: Growth inhibition of human SNB75 cells after 48 hrs by coulter counting analysis
Assay type: functional
Conditions: SNB-75, 48 h
quantity.measured: GI50 (µM)
Value expressed in µM; do not type the unit.

// query What measured GI50 is associated with "COc1c2occc2c(OC)c2c(=O)c(CN3CCOCC3)c(/C=C/c3ccc(Cl)cc3)oc12" on SNB-75?
// result 2.41

// query Now this one: "COc1c(C(=O)/C=C/c2ccc(Cl)cc2)c(O)c(Br)c2occc12"
// result 1.8

// query Same again, this time with "C=CCc1c2c(c(OC)c3ccoc13)C(=O)/C(=C/c1ccccc1OC)O2"
// result 1.44

// query Also "C=CCc1c(O)c(C(=O)/C=C/c2ccccc2)c(OC)c2ccoc12" , if possible.
// result 1.39

// query Also check "COc1c(C(=O)/C=C/c2ccccc2)c(O)cc2occc12"
// result 2.42

// query Try "C=CCc1c(O)c(C(=O)/C=C/c2ccc(Cl)cc2)c(OC)c2ccoc12" next.
// result 2.01

// query Please give the result for "COc1ccc(-c2cc(=O)c3c(OC)c4ccoc4c(/C=C/C=O)c3o2)cc1" too.
// result 3.13

// query Now consider "COc1c2ccoc2c(/C=C/C=O)c2oc(-c3ccccc3)cc(=O)c12" and answer again.
// result 8.3

// query Next compound up: "COc1ccccc1/C=C/C(=O)c1c(O)cc2occc2c1OC"
// result 7.49

// query Also need "COc1c2occc2c(OC)c2c(=O)c(CN3CCOCC3)c(/C=C/c3ccc(N(C)C)cc3)oc12" , thanks.
// result 1.39

----------
Test system: A498
Experiment: Growth inhibition of human A498 cells after 48 hrs by coulter counting analysis
Assay type: functional
Settings: A498, 48 h
With a cut-off of 6 µM, any GI50 strictly below it is called yes (1); any GI50 meeting it or above is called no (0).

// query Given the entry "COc1c(C(=O)/C=C/c2ccc(Cl)cc2)c(O)c(Br)c2occc12" , would its reported GI50 be below 6 µM?
// result yes (1)

// query Also "C=CCc1c(O)c(C(=O)/C=C/c2ccccc2)c(OC)c2ccoc12" ?
// result yes (1)

// query Another compound to look at: "COc1c2occc2c(OC)c2c(=O)c(CN3CCOCC3)c(/C=C/c3ccc(N(C)C)cc3)oc12"
// result yes (1)

// query One more compound: "COc1ccc(-c2cc(=O)c3c(OC)c4ccoc4c(/C=C/C=O)c3o2)cc1"
// result no (0)

// query Thanks! And "COc1c(C(=O)/C=C/c2ccccc2)c(O)cc2occc12" ?
// result no (0)

// query Please answer likewise for "C=CCc1c(O)c(C(=O)/C=C/c2ccc(Cl)cc2)c(OC)c2ccoc12"
// result yes (1)

// query Next up: "COc1ccccc1/C=C/C(=O)c1c(O)cc2occc2c1OC"
// result no (0)

// query Also need "C=CCc1c2c(c(OC)c3ccoc13)C(=O)/C(=C/c1ccccc1OC)O2" , thanks.
// result yes (1)

// query Same lookup for "COc1c2ccoc2c(/C=C/C=O)c2oc(-c3ccccc3)cc(=O)c12" , please.
// result no (0)

----------
Assay: Growth inhibition of human SF539 cells after 48 hrs by coulter counting analysis
Assay type: functional
Conditions: SF-539, 48 h
Values of GI50 strictly less than 4 µM map to condition met, and values of at least 4 µM map to condition not met.

// query A record lists "C=CCc1c(O)c(C(=O)/C=C/c2ccccc2)c(OC)c2ccoc12" . Is its GI50 below 4 µM?
// result condition met

// query Entry to check: "C=CCc1c2c(c(OC)c3ccoc13)C(=O)/C(=C/c1ccccc1OC)O2"
// result condition not met

// query Try this molecule too: "C=CCc1c(O)c(C(=O)/C=C/c2ccc(Cl)cc2)c(OC)c2ccoc12"
// result condition met

// query And then "COc1ccccc1/C=C/C(=O)c1c(O)cc2occc2c1OC" , what is it?
// result condition not met

// query Another molecule to check: "COc1c2ccoc2c(/C=C/C=O)c2oc(-c3ccccc3)cc(=O)c12"
// result condition met

// query Input "COc1ccc(-c2cc(=O)c3c(OC)c4ccoc4c(/C=C/C=O)c3o2)cc1"
// result condition not met

// query Next record, please: "COc1c(C(=O)/C=C/c2ccccc2)c(O)cc2occc12"
// result condition met
